Measured on: GABA-A receptor; alpha-1/beta-3/gamma-2 (Homo sapiens, UniProt P14867+P18507+P28472)
Sequence (P14867 whole entry): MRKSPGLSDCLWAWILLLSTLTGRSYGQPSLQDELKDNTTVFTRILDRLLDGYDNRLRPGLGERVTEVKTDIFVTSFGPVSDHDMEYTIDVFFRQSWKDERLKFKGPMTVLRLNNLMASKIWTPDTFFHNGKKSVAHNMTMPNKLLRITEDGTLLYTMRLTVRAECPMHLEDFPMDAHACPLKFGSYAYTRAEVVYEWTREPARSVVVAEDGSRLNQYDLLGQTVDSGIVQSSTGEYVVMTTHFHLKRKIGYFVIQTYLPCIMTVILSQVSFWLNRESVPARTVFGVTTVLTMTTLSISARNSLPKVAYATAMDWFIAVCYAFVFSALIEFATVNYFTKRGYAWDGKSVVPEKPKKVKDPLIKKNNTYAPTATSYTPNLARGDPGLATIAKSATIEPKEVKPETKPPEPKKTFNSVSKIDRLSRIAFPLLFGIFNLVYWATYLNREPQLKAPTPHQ
Sequence (P18507 whole entry): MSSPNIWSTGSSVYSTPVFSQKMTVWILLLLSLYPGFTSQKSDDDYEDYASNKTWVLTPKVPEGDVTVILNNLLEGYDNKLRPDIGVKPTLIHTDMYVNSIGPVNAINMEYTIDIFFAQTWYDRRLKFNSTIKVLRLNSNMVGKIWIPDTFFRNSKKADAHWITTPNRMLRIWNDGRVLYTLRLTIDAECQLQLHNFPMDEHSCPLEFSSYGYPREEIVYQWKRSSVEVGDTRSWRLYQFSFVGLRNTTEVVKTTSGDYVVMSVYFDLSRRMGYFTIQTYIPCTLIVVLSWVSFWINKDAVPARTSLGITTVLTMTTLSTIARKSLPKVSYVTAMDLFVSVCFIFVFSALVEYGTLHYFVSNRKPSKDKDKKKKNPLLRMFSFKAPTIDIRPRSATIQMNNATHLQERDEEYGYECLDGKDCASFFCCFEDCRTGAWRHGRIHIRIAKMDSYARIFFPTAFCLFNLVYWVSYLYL
Sequence (P28472 whole entry): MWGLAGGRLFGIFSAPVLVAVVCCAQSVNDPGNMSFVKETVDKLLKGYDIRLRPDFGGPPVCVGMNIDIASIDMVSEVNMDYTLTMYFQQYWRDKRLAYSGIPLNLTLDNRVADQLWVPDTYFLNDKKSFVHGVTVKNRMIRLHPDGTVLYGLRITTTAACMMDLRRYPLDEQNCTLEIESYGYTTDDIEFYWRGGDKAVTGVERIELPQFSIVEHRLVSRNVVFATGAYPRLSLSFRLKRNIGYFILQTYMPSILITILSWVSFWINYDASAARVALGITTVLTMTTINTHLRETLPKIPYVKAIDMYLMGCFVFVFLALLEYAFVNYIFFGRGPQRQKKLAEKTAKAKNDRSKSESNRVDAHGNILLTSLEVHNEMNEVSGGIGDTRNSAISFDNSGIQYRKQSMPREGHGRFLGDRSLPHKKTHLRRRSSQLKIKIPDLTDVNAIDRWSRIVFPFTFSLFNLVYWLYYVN
Measurement description: Inhibition of [3H]Ro-151788 binding to recombinant human gamma-aminobutyric-acid A receptor alpha-1-beta-3-gamma-2 subtype expressed in L (tk-) cells
Exercise: state measured pKi for each of the compounds provided.
Entry type: numeric. Quantity: pKi, the -log10 of concentration in molar units.

I would be grateful if you could share the reported pKi for `Cc1cccc(CCCOc2nn3c(-c4ccccc4)nnc3c3c2C2CCC3CC2)n1` .
7.12

I would be grateful if you could share the reported pKi for `c1ccc(COc2nn3c(C4CC4)nnc3c3c2C2CCC3CC2)nc1` .
6.89

I would be grateful if you could share the reported pKi for CN1CCCC(COc2nn3c(-c4ccccc4)nnc3c3c2C2CCC3CC2)C1 (stereo unspecified) .
6.12

I would be grateful if you could share the reported pKi for `CN(C)C(=O)COc1nn2c(-c3ccccc3)nnc2c2c1C1CCC2CC1` .
6.66

I would be grateful if you could share the reported pKi for `Cc1ccc(COc2nn3c(-c4ccccc4)nnc3c3c2C2CCC3CC2)nn1` .
7.30

I would be grateful if you could share the reported pKi for `COc1cccc(-c2nnc3c4c(c(OCc5ccccn5)nn23)C2CCC4CC2)c1` .
6.85

I would be grateful if you could share the reported pKi for `Cn1nnnc1COc1nn2c(-c3ccccc3)nnc2c2c1C1CCC2CC1` .
7.11

I would be grateful if you could share the reported pKi for `Cc1ccc(C)c(COc2nn3c(-c4ccccc4)nnc3c3c2C2CCC3CC2)n1` .
7.57

I would be grateful if you could share the reported pKi for `Cc1cc(COc2nn3c(-c4ccccc4)nnc3c3c2C2CCC3CC2)sn1` .
6.68

I would be grateful if you could share the reported pKi for `Cn1ccnc1COc1nn2c(-c3ccccc3)nnc2c2c1C1CCC2CC1` .
7.72

* * *

Measured on: GABA-A receptor; alpha-1/beta-3/gamma-2 (Homo sapiens) (UniProt P14867+P18507+P28472)
Measurement description: Efficacy was measured as modulation of the current in response to GABA at hGABA alpha-1-beta-3-gamma-2 receptor expressed in Xenopus oocytes
Type: cell-based
Condition set: Oocyte
Property label: Efficacy (%)
Field format: number, assumed %, no unit text.

I would be grateful if you could share the reported Efficacy for `c1ccc(-c2nnc3c4c(c(OCc5nccs5)nn23)C2CCC4CC2)cc1` .
84

I would be grateful if you could share the reported Efficacy for `c1ccc(Cn2ccnc2COc2nn3c(-c4ccccc4)nnc3c3c2C2CCC3CC2)cc1` .
73

I would be grateful if you could share the reported Efficacy for `Cc1cc(C)n(COc2nn3c(-c4ccccc4)nnc3c3c2C2CCC3CC2)n1` .
31

I would be grateful if you could share the reported Efficacy for `c1ccc(-c2nnc3c4c(c(OCc5cscn5)nn23)C2CCC4CC2)cc1` .
33

I would be grateful if you could share the reported Efficacy for `Cc1ccnc(COc2nn3c(-c4ccccc4)nnc3c3c2C2CCC3CC2)c1` .
41

I would be grateful if you could share the reported Efficacy for `c1ccc(-c2nnc3c4c(c(OCn5cccn5)nn23)C2CCC4CC2)cc1` .
76

I would be grateful if you could share the reported Efficacy for `CCn1ccnc1COc1nn2c(-c3ccccc3)nnc2c2c1C1CCC2CC1` .
26

I would be grateful if you could share the reported Efficacy for `COc1cccc(-c2nnc3c4c(c(OCc5ccccn5)nn23)C2CCC4CC2)c1` .
51

I would be grateful if you could share the reported Efficacy for `Cn1ccnc1COc1nn2c(-c3ccccc3)nnc2c2c1C1CCC2CC1` .
24

I would be grateful if you could share the reported Efficacy for `c1ccc(COc2cccnc2COc2nn3c(-c4ccccc4)nnc3c3c2C2CCC3CC2)cc1` .
178

I would be grateful if you could share the reported Efficacy for `c1ccc(-c2nnc3c4c(c(OCc5ncccc5OCC5CC5)nn23)C2CCC4CC2)cc1` .
175

I would be grateful if you could share the reported Efficacy for `c1ccc(-c2nnc3c4c(c(OCc5nccc6ccccc56)nn23)C2CCC4CC2)cc1` .
45

I would be grateful if you could share the reported Efficacy for `Cc1cccnc1COc1nn2c(-c3ccccc3)nnc2c2c1C1CCC2CC1` .
17

I would be grateful if you could share the reported Efficacy for `Cc1ccc(-c2nnc3c4c(c(OCc5ccccn5)nn23)C2CCC4CC2)cc1` .
9

I would be grateful if you could share the reported Efficacy for `CCCn1ncnc1COc1nn2c(-c3ccccc3)nnc2c2c1C1CCC2CC1` .
41

I would be grateful if you could share the reported Efficacy for `Cn1cnc(COc2nn3c(-c4ccccc4)nnc3c3c2C2CCC3CC2)n1` .
26

I would be grateful if you could share the reported Efficacy for `N#Cc1cccc(COc2nn3c(-c4ccccc4)nnc3c3c2C2CCC3CC2)c1` .
23

I would be grateful if you could share the reported Efficacy for `c1ccc(-c2nnc3c4c(c(OCc5cccnn5)nn23)C2CCC4CC2)cc1` .
64

I would be grateful if you could share the reported Efficacy for `Cc1cnc(COc2nn3c(-c4ccccc4)nnc3c3c2C2CCC3CC2)c(C)c1` .
34
